test system: HL-60; assay: NCI tumour cell line growth inhibition, 48 h
The source made the active and inactive calls. Cut-off read from the data, not from the text of the source: active = GI50 up to about 1.1 µM and inactive = higher. Non-standard residues stand in square brackets, D forms with d. Residues, ends and D or L forms follow the SMILES beside them. ξ: configuration not given here. *: point of attachment. ξF = NC(Cc1ccccc1)C(=O)O; Cbz = O=C(OCc1ccccc1)*; Aib = CC(C)(N)C(=O)O
Possible outcomes: active, inactive

* CC(OCc1ccccc1)C(NC(=O)C1CSSCC(NC(=O)C(Cc2ccccc2)NC(=O)OCc2ccccc2)C(=O)NC(Cc2ccccc2)C(=O)NC(Cc2cn(C=O)c3ccccc23)C(=O)NC(CCCCNC(=O)OCc2ccccc2)C(=O)NC(C(C)OCc2ccccc2)C(=O)N1)C(N)=O (stereo not given) | active
* CCOC(=O)CNC(=O)C(Cc1ccccc1)NC(=O)C(C)(C)NC(=O)OCc1ccccc1 (stereo not given) (Cbz-[Aib]-[ξF]-Gly-OEt) | inactive
* CC1=C(C(=O)CC(=O)C(=O)Nc2ccccc2C)Sc2ccccc2N1 | inactive
* C[N+](C)(C)CC(=O)N/N=C/c1ccncc1 | inactive
* COC(=O)CCc1ccc2c(c1)CC1(C2)Cc2ccc(CCC(=O)OC)cc2C1 | inactive
* CCCC(=O)N(C)/N=N/c1ccc(C(=O)OCC)cc1 | inactive
* C[C@@]12CCC(=O)c3coc(c31)C(=O)c1cc3c(cc12)C(=O)C=CC3=O | inactive
* COC(=O)C1=CC(=O)OC1(OO)c1ccccc1 (stereo not given) | inactive
* CC[C@H]1C=CCC[C@@]2(C[C@@H]3CC[C@@H]4[C@H](C(=O)OCCCCCCCCCCCCCCCC(=O)N(CCCN)C[C@@H](O)CCN)[C@]5(CCC[C@@H](C)O5)NC(=[N+]34)N2)O1 | active
* O=c1sc2ccccc2n1CC1CS1 (stereo not given) | inactive
* C=CCSC1=N/C(=C\c2ccccc2)C(=O)N1CC=C | inactive
* COc1ccc(C2SC(=N)Nc3c2c(C)nn3C(=O)c2ccccc2O)cc1 (stereo not given) | inactive
* Cc1ccc(NC(=O)/C(Cc2cc(=O)oc3cc(O)ccc23)=N\NC(C)(C)C)cc1C | inactive
* CN1C(=O)c2ccccc2NC(=O)c2cnn(C)c21 | inactive
* O=c1[nH]c(=S)[nH]c2c(C3OC(CO)C(O)C3O)nsc12 (stereo not given) | inactive
* O=C(/C(=N/Nc1cn[nH]c(=O)c1Cl)c1ccccc1)c1ccccc1 | inactive
* COc1ccc2c(c1)[C@@]13CCCC[C@H]1[C@@H](C2)N(C)CC3=O | inactive
* COc1ccc(-c2cc(-c3ccccc3)[nH]c(=S)c2C#N)cc1 | inactive
* O=C1c2ccccc2C(=O)c2c1oc(=O)c1ccccc21 | active
* CN(C)CCC(/C=C/c1ccccc1)=N\Nc1ccc(Cl)cc1Cl | inactive

====

system: SR; experiment: NCI tumour cell line growth inhibition, 48 h
Activity calls are given as the source filed them. Rule as the data show it: active = GI50 up to about 1.1 µM and inactive = higher. Non-standard residues stand in square brackets, D forms with d. Residues, ends and D or L forms follow the SMILES beside them. ξ: configuration not given here. *: point of attachment. ξF = NC(Cc1ccccc1)C(=O)O; Cbz = O=C(OCc1ccccc1)*; Aib = CC(C)(N)C(=O)O
Possible outcomes: t for active, f for inactive

• COc1ccc(-n2cnnc2-c2nsc3ccccc23)cc1 = f
• Cn1c2ccccc2c2c(=O)[nH]c(=O)[nH]c21 = f
• O=C1CCCc2cc3c(cc21)CCC3C(=O)O (stereo not given) = f
• NC1=NC2(COC(c3ccccc3)(c3ccccc3)c3ccccc3)OC(COC(c3ccccc3)(c3ccccc3)c3ccccc3)C(O)C2O1 (stereo not given) = f
• CCOC(=O)CNC(=O)C(Cc1ccccc1)NC(=O)C(C)(C)NC(=O)OCc1ccccc1 (stereo not given) (Cbz-[Aib]-[ξF]-Gly-OEt) = f
• O=C(O)CCCCCOc1cccnc1/C=N/NC1=NCCN1 = f
• CC(=O)OC1C2CCC3CC2C2(SCCS2)C31 (stereo not given) = f
• CC(C)C1C(=O)N2CCCC2C2(O)OC(NC(=O)C3C=C4c5cccc6[nH]cc(c56)CC4N(C)C3)(C(C)C)C(=O)N12 (stereo not given) = f
• CCN(CC)c1ccc(C(=C2C=CC(=[N+](CC)CC)C=C2)c2ccccc2)cc1 = t
• O=C1Nc2cc([N+](=O)[O-])ccc2N/C1=C/C(=O)c1ccc(Cl)cc1 = f
• CC(OCc1ccccc1)C(NC(=O)C1CSSCC(NC(=O)C(Cc2ccccc2)NC(=O)OCc2ccccc2)C(=O)NC(Cc2ccccc2)C(=O)NC(Cc2cn(C=O)c3ccccc23)C(=O)NC(CCCCNC(=O)OCc2ccccc2)C(=O)NC(C(C)OCc2ccccc2)C(=O)N1)C(N)=O (stereo not given) = f
• CCOc1ccc(/N=N/S(=O)(=O)O)cc1 = f
• FC(F)(F)c1nc(-c2ccccc2Cl)[nH]c1C(F)(F)F = t
• Cc1ccc(O)c(-c2cc(-c3cccc(Cl)c3)c(C#N)c(N)n2)c1 = f
• COc1ccc(CCNC(=S)NC=C2C(=O)c3ccccc3C2=O)cc1OC = f
• CCCCCCN(CCCCCC)CCC(=O)c1ccc2cc(Br)c3ccccc3c2c1 = t
• c1csc(-c2cc(-c3ccsc3)cs2)c1 = f
• Clc1ccc(Nc2ncco2)cc1Cl = f
• CC(C)Nc1[nH]c(C(=O)c2ccccc2)c(N)c1C(=S)Nc1ccccc1 = f
• Cn1c2ccccc2n2c(N=O)c(-c3ccccc3)nc12 = f

====

system: SK-MEL-28; experiment: NCI tumour cell line growth inhibition, 48 h
Activity calls are given as the source filed them. No stated cut-off is given here; in the data, active = GI50 up to about 1.1 µM and inactive = higher.
Let's look at some compounds and their measured GI50.
value.kind: GI50

* Cc1ccc(S(=O)(=O)Nn2c(O)c(C#N)c(-c3ccc(N(C)C)cc3)c(C#N)c2=O)cc1 | > 50 µM (inactive)
* CC(=O)Oc1ccc(/C=C/C(=O)OCCCOC(=O)/C=C/c2ccc(OC(C)=O)c(OC(C)=O)c2)cc1OC(C)=O | > 100 µM (inactive)
* O=C(/C(=N/Nc1cn[nH]c(=O)c1Cl)c1ccccc1)c1ccccc1 | 45.1 µM (inactive)
* O=P(c1ccccc1)(c1ccccc1)C1CC=C2CCCCCC2C1 (stereo not given) | > 10 µM (inactive)
* N=C(N)NS(=O)(=O)c1ccc(NC(=O)c2ccc3nc4ccccc4c(O)c3c2)cc1 | > 100 µM (inactive)
* COc1cc(O)c2c(=O)c(OC)c(-c3ccc4c(c3)OCO4)oc2c1 | > 100 µM (inactive)
* Cc1cccc2c(N)c3cccc(C(=O)NCCCNCCN)c3nc12 | 15.5 µM (inactive)
* CC1=C(/C=C/C(C)=C/C=C/C(C)=C/C=C/C=C(C)/C=C/C=C(C)/C=C/C2=C(C)C(=O)C(O)CC2(C)C)C(C)(C)CC(O)C1=O (stereo not given) | > 100 µM (inactive)
* O=C(NNC(=S)Nc1ccccc1)c1cc(-c2ccccc2)nc2ccccc12 | 16.4 µM (inactive)
* COc1ccccc1C12OC(=O)C1(C)Oc1ccccc1C2=O (stereo not given) | > 100 µM (inactive)
* CC(C)OC(=O)C(NC(=O)C(CC(=O)OCc1ccccc1)NC(=O)OCc1ccccc1)NC(=O)C1C(C)(C)CCC1(C)C (stereo not given) | > 42 µM (inactive)
* O=C1/C(=C\c2cccc(Oc3ccccc3)c2)S(=O)(=O)C(c2ccccc2)N1c1cccc(Cl)c1 (stereo not given) | > 100 µM (inactive)
* O=C[C@]12CC=C3OC4OC5(CCCCC5)OC4[C@H]3[C@H]1C(=O)C=CC2=O (stereo not given in full) | 26.7 µM (inactive)
* O=C1c2ccccc2C(=O)C1C(c1ccc([N+](=O)[O-])cc1)C1C(=O)c2ccccc2C1=O | 29 µM (inactive)
* COC(=O)c1ccccc1/C=C1/Cc2cccc(C)c2C1=O | > 100 µM (inactive)
* COc1cc([C@@H]2c3cc4c(cc3[C@@H](NC(=O)c3ccc([N+](=O)[O-])cc3)C3COC(=O)[C@@H]32)OCO4)cc(OC)c1O (stereo not given in full) | 1.97 µM (inactive)
* c1csc(-c2cc(-c3ccsc3)cs2)c1 | > 100 µM (inactive)
* C/C(CCOC1CCCCO1)=C(\C)[Si](C)(C)C (stereo not given) | > 100 µM (inactive)
* O=C(c1ccccc1Cl)n1oc2ccccc2c1=O | > 100 µM (inactive)
* Clc1ccc(Nc2ncco2)cc1Cl | > 10 µM (inactive)

====

system: SK-MEL-28; assay: NCI tumour cell line growth inhibition, 48 h
The source made the active and inactive calls. Cut-off read from the data, not from the text of the source: active = GI50 up to about 1.1 µM and inactive = higher.
value.kind: GI50

- Cc1ccc(NC(=O)/C(Cc2cc(=O)oc3cc(O)ccc23)=N\NC(C)(C)C)cc1C: > 100 µM (inactive)
- COc1ccc(C2=Nn3c(nnc(Cc4ccc(Cl)cc4)c3=O)SC2)cc1: 74.6 µM (inactive)
- COC1CCC(OC2CC(C3(C)CCC4(CC(O)C(C)C(C(C)/C=C(\C)C(=O)C(C)CC(C)C(=O)O)O4)O3)OC3(OC(C4OC(O)(CO)C(C)CC4C)CC3C)C2C)OC1C (centres undefined): 0.0362 µM (active)
- COC(=O)CN1c2nc(C#N)c(C#N)nc2N(CC(=O)OC)c2nc(C#N)c(C#N)nc21: 3.74 µM (inactive)
- O=c1c2cc(Br)ccc2[nH]c(=S)n1-c1ccc(Br)cc1: > 100 µM (inactive)
- COc1cc([C@@H]2c3cc4c(cc3[C@@H](NCCNCCO)[C@H]3COC(=O)[C@H]23)OCO4)cc(OC)c1O: 2.14 µM (inactive)
- C1=C(c2ccccc2)CN(c2ccccc2)OC1: 79.8 µM (inactive)
- COc1cc(/C=C/c2ccc(OC)c(O)c2)cc(OC)c1: 6.08 µM (inactive)
- CCOc1ccc(/N=N/S(=O)(=O)O)cc1: > 100 µM (inactive)
